- Tested on: Fibroblast
- method: Multiplex assay against human fibroblast
- Type: toxicity, cell-based
- run-parameters: 12 h, 1 µM, compound concentration 1 uM, replicate 2
measurement-type: Population Fragmented Nuclei (%)

1) CSCC[C@H](NC=O)C(=O)N[C@@H](CC(C)C)C(=O)N[C@@H](Cc1ccccc1)C(=O)O    29%
2) c1cc(OCCCN2CCCCC2)ccc1CN1CCCCC1    24%
3) CC1(COc2ccc3c(c2)ncn3-c2ccc3cccc(N4CCC(N)CC4)c3n2)COC1    33%

----------
- Test system: HEK-293T
- method: Multiplex assay against HEK293T
- Format: toxicity, cell-based
- run-parameters: human, 48 h, 10 µM, compound concentration 10 uM, replicate 2
Each entry below lists one item and its recorded Population Tubulin-Different-Phenotype (%) value.
measurement-type: Population Tubulin-Different-Phenotype (%)

1. Cc1ccc(F)cc1C(=O)Nc1ccc(C(=O)N2Cc3cccn3Cc3ccccc32)c(Cl)c1 [LIXIVAPTAN]    59
2. CSCC[C@H](NC=O)C(=O)N[C@@H](CC(C)C)C(=O)N[C@@H](Cc1ccccc1)C(=O)O    14
3. CC(=O)NCCc1c(Cc2ccccc2)[nH]c2ccccc12 [LUZINDOLE]    19
4. C[C@H]1[C@H]2CC[C@H]3[C@@H]4CC=C5C[C@@H](N(C)C)CC[C@]5(C)[C@H]4CC[C@]23CN1C [CONESSINE]    17
5. Cc1nc2ccc(Oc3ccc(F)cc3)cc2c(=O)n1C[C@H]1CCCN(C(C)C)C1.Cl    58
6. CC(=O)O[C@H]1C(=O)[C@@]2(C)[C@H]([C@H](OC(=O)c3ccccc3)[C@]3(O)C[C@H](OC(=O)[C@H](O)[C@@H](NC(=O)c4ccccc4)c4ccccc4)C(C)=C1C3(C)C)[C@]1(OC(C)=O)CO[C@@H]1C[C@@H]2O [PACLITAXEL]    11
